# credit: paper PMC10397247

Target system: T1, 4H2580-AA
T1 chain: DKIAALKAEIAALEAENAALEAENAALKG
Experiment notes: two-hybrid library CCmax;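 also: natural log of median RNA to DNA barcode read ratio; higher means stronger binding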
Settings: mean of both orientations
Label T when interaction score is at or above -1; otherwise label F.

Binder: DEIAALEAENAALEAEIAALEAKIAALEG [4H133-AA]
Label: F
//
Binder: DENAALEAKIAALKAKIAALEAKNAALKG [4H1384-AA]
Label: T
//
Binder: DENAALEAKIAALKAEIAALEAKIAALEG [4H1349-AA]
Label: T
//
Binder: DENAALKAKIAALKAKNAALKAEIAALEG [4H1913-AA]
Label: T
//
Binder: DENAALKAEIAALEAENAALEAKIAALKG [4H1558-AA]
Label: F
//
Binder: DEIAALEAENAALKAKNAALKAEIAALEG [4H249-AA]
Label: T
//
Binder: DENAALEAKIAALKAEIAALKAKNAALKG [4H1360-AA]
Label: T
//
Binder: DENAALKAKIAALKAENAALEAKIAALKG [4H1878-AA]
Label: T
//
Binder: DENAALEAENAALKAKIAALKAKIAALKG [4H1262-AA]
Label: F
//
Binder: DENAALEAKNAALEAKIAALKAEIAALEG [4H1449-AA]
Label: T
//
Binder: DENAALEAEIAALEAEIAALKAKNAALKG [4H1040-AA]
Label: T
//
Binder: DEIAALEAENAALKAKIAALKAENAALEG [4H235-AA]
Label: T
//
Binder: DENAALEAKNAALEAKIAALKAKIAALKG [4H1454-AA]
Label: T
//
Binder: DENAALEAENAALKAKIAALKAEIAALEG [4H1257-AA]
Label: F
//
Binder: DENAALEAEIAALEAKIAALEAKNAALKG [4H1064-AA]
Label: T
//
Binder: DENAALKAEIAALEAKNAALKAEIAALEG [4H1593-AA]
Label: T
//
Binder: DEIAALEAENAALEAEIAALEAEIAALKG [4H130-AA]
Label: F
